- PROCEDURE SUMMARY: Tmax in CD1 mouse at 0.77 mg/kg, po
- Assay type: ADME, organism-based
- Set-up: dose 0.77 mg/kg, route oral
- EXPERIMENTAL CONTEXT: in vivo
MEASURED PROPERTY: Tmax (min)
Write the number in min without appending the unit.

Input: # return recorded Tmax for input NCC(=O)N1C[C@H](NC(=O)c2ccccc2)C[C@H]1C(=O)O [DANEGAPTIDE]
Output: 30

* * *

- PROCEDURE SUMMARY: Tmax in CD1 mouse at 5 mg/kg, po
- Type: ADME, organism-based
- Set-up: dose 5 mg/kg, route oral
- EXPERIMENTAL CONTEXT: in vivo
// reported Tmax for each item listed
Don't forget the unit after the number, please.

As a guide, the following entries are already answered.
CC(=O)NCC(=O)N1C[C@H](NC(=O)c2ccccc2)C[C@H]1C(=O)O: 15 min
NCC(=O)N1C[C@H](NC(=O)c2ccccc2)C[C@H]1C(=O)NC1CC1: 15 min

We now examine a further molecule.
Input: # return recorded Tmax for input `CC(C)NC(=O)[C@@H]1C[C@@H](NC(=O)c2ccccc2)CN1C(=O)CN`
Output: 15 min
